Target: HIV-1 Env of pseudovirus 0260.v5.c36 (HIV-1)
Experiment: cell-based or functional assay
Assign neutralization IC50 to each entry below.
// note: answer is a bare numeric in µg/mL

Asked: Entry MS-70 (antibody, V domains shown) VH: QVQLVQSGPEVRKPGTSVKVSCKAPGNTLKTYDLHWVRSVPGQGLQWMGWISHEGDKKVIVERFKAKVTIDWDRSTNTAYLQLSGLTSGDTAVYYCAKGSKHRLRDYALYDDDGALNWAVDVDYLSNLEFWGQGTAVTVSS VL: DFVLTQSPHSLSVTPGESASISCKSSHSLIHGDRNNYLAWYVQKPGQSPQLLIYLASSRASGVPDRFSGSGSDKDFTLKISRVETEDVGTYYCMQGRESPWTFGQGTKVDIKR : reported neutralization IC50 = ?
Given back: 0.028

Asked: MS-79 (antibody, V domains shown) VH: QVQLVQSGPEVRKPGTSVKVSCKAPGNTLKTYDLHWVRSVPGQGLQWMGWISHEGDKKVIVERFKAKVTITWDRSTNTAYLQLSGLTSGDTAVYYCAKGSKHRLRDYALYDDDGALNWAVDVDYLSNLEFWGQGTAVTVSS VL: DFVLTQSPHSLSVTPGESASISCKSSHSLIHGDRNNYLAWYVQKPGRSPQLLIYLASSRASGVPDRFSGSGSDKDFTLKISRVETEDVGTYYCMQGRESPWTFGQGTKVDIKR ?
Given back: 0.028

Asked: MS-83 (antibody, V domains shown) VH: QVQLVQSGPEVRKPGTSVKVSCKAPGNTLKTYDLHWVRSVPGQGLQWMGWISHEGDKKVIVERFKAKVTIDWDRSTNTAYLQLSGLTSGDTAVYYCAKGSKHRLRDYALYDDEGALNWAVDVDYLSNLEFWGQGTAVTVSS VL: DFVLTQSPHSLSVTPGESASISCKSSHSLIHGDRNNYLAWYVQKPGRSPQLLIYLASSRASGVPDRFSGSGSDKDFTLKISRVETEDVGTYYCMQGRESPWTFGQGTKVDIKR ?
Given back: 0.023
